Experiment: Solubility of the organic additives in water
Conditions: water, 25 °C, thermodynamic from solid
Assay Metric: solubility (mg/mL)

[[record]]
molecule = "CC(=O)OCC(COC(C)=O)OC(C)=O [1,2,3-propanetriol triacetate]"
assay_metric = "solubility"
unit_name = "mg/mL"
value_measured = 72

[[record]]
molecule = "CCCCCCCO"
assay_metric = "solubility"
unit_name = "mg/mL"
value_measured = 1.74

[[record]]
molecule = "CCCCCO"
assay_metric = "solubility"
unit_name = "mg/mL"
value_measured = 22.4

